- System: OVCAR-3 ovarian
- TEST DESCRIPTION: NCI-60 one-dose screen, 48 h
- ASSAY SETUP: 10 µM unless noted
- Method: Growth inhibition of the OVCAR-3 human tumor cell line is measured as a screen for anti-cancer activity. Cells are grown in 96 well plates and exposed to the test compound for 48 hours. Compounds are tested at a single concentration, which is 10^-5 M for most compounds. The reported endpoint is percent growth (GI% or GIPRCNT), where numbers from 0 - 100% represent growth inhibition, and numbers from -100% - 0 represent cell death. For example, a value of 40 represents 60% growth inhibition. […]
The panel holds about 83,000 compounds, 20% with a hit somewhere; the sample as a whole holds those more often. The source made the active and inactive calls. How the source made its calls: active means growth percent below 10; inactive means the rest.
Answer with one of the outcomes active, inactive

{"COMPOUND": "COc1ccc(-c2nc3cc(C)ccc3n2CC(=O)N=Nc2c(O)[nH]c3ccc(OC)cc23)cc1", "GROUP": "active"}

Record lookup: outcome of this test for COc1cc2c(c(OC)c1OC)C(=O)CC(c1cccc(NC(=O)c3cc(NC(=O)[C@@H](N)CO)ccc3C)c1)O2 (some centres undefined) ?
inactive

Repeat for the following compound: O=C(COc1ccc2c(c1)CCCC(=O)N2)NCc1ccccc1
inactive

Repeat for the following compound: O=C(c1ccccc1)c1ccc2nc(-c3ccc(F)cc3)[nH]c2c1
inactive

Repeat for the following compound: Cn1cc(-c2cc(N)n3nc(-c4c[nH]c5ccccc45)cc3n2)c2cc(Br)cnc21
active

Repeat for the following compound: Cc1cc2c(cc1Cl)C(=O)/C(=C/c1ccccc1)O2
inactive

Repeat for the following compound: CSc1ccc(C(=O)Nc2ccc3nn(/C(C#N)=C/c4ccccn4)nc3c2)cc1
active

Repeat for the following compound: CN(C)c1nc(NCCNS(=O)(=O)c2ccc(C(=O)/C=C/c3ccc(C(F)(F)F)cc3)cc2)nc(Nc2ccc(F)cc2)n1
active

Repeat for the following compound: O=c1oc2ccc(Br)cc2cc1C1=CSc2nc3sc4c(c3c(=O)n2N=C1)CCCC4
inactive

---

- Test system: SK-MEL-28 melanoma
- TEST DESCRIPTION: NCI-60 one-dose screen, 48 h
- ASSAY SETUP: 10 µM unless noted
This is part of a sample that, as a whole, favours compounds with a hit. Of some 83,000 tested, about 20% had one in any assay. The source made the active and inactive calls. How the source made its calls: active means growth percent below 10; inactive means the rest.
Answer with one of the outcomes Y = active, N = inactive

{"COMPOUND": "Cc1cccc(Nc2nc3ccccc3nc2/C=C/c2ccc(F)cc2)c1", "GROUP": "N"}
{"COMPOUND": "c1ccc(-c2csc(Nc3cccc(Nc4nc(-c5ccccc5)cs4)c3)n2)cc1", "GROUP": "N"}
{"COMPOUND": "COC(=O)/C=C/c1cccc2c1C(=O)NC(C)(c1cc3ccccc3oc1=O)N2 (stereo not drawn)", "GROUP": "N"}
{"COMPOUND": "O=C(N=Nc1c(O)[nH]c2ccc([N+](=O)[O-])cc12)c1ccc2nc(-c3ccccc3)[nH]c2c1", "GROUP": "N"}
{"COMPOUND": "CC(C)CSc1nc(NCCc2c[nH]c3ccccc23)c(C#N)c(-c2ccccc2)n1", "GROUP": "N"}

Record lookup: outcome of this test for CC12CC[C@@H]3[C@]4(C)COC(c5cn[nH]c5-c5cccc(Cl)c5)O[C@@H]4CC[C@@]3(C)[C@@H]1CC(C1=CCOC1=O)O2 (stereo partly drawn) ?
N

Repeat for the following compound: C=C1CC[C@@H]2[C@]3(C)COC(c4cn[nH]c4-c4cccc(Br)c4)O[C@@H]3CC[C@@]2(C)[C@@H]1C/C=C1/C(=O)OCC1O (stereo partly drawn)
Y

Repeat for the following compound: NS(=O)(=O)c1ccc(N=Nc2c(O)n(CC(=O)Nc3ccccc3Cl)c3ccccc23)cc1
N
